SYSTEM: Kras and SOS1 (biotin-tagged human Kras loaded with GDP, His-tagged human SOS1) (Homo sapiens, UniProt P01116, G12D)
Construct: made in house; host or cells: E. coli (stated for Kras only)
Sequence (P01116 1-188 isoform P01116-2 G12D): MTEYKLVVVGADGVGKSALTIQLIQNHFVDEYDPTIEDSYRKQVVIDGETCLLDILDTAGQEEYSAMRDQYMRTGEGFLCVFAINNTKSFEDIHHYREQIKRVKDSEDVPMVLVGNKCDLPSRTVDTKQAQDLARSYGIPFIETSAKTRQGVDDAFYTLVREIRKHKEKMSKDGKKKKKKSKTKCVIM
ASSAY SUMMARY: Protein-protein interaction inhibition between Kras and SOS1 (KrasGl2D-SOS PPI) using AlphaScreen
Assay type: binding
SETTINGS: AlphaScreen; biotin-tagged human Kras loaded with GDP, His-tagged human SOS1; read-out: KRAS G12D-SOS PPI IC50
Positions of bridges follow the written chain, without caps; N, C: chain ends. Non-standard residues stand in square brackets, D forms with d. Residues, ends and D or L forms follow the SMILES beside them. *: point of attachment. hPhe(3-F,4-CF3) = N[C@@H](CCc1ccc(C(F)(F)F)c(F)c1)C(=O)O; hPhe(4-CF3) = N[C@@H](CCc1ccc(C(F)(F)F)cc1)C(=O)O; NMePhe(4-Cl) = CN[C@@H](Cc1ccc(Cl)cc1)C(=O)O; NMeCha = CN[C@@H](CC1CCCCC1)C(=O)O; NMeD = CN[C@@H](CC(=O)O)C(=O)O; NMeL = CN[C@@H](CC(C)C)C(=O)O; NMeV = CN[C@H](C(=O)O)C(C)C; d(β3hA) = C[C@@H](N)CC(=O)O; Piperidide = C1CCN(*)CC1; Aib = CC(C)(N)C(=O)O; Sar = CNCC(=O)O
# IC50 values compiled below
Value expressed in nM; do not type the unit.

CC[C@H](C)[C@@H]1NC(=O)[C@H](CC(C)C)N(C)C(=O)C[C@@H](C)NC(=O)[C@H](CC(C)C)N(C)C(=O)C(C)(C)NC(=O)[C@@H]2CCCN2C(=O)[C@H](CCc2ccc(C(F)(F)F)cc2)NC(=O)CN(C)C(=O)[C@H](Cc2ccc(Cl)cc2)N(C)C(=O)CN(C)C(=O)CN(C)C1=O [Compound 1013] (cyclo([Aib][NMeL][d(β3hA)][NMeL]I[Sar][Sar][NMePhe(4-Cl)][Sar][hPhe(4-CF3)]P))    31

Shift focus to the following entry.
Given item CC[C@H](C)[C@@H]1NC(=O)[C@H](CC(C)C)N(C)C(=O)C[C@@H](C(=O)N2CCCCC2)N(C)C(=O)[C@H](C(C)C)N(C)C(=O)C(C)(C)NC(=O)[C@@H]2CCCN2C(=O)[C@H](CCc2ccc(C(F)(F)F)c(F)c2)NC(=O)CN(C)C(=O)[C@H](CC2CCCCC2)N(C)C(=O)CN(C)C(=O)CN(C)C1=O [Compound 522] ([NMeL]I[Sar][Sar][NMeCha][Sar][hPhe(3-F,4-CF3)]P[Aib][NMeV][NMeD]-Piperidide; lactam N-11) , the value recorded as its IC50 is 5.3

* * *

SYSTEM: Kras and SOS1 (biotin-tagged human Kras loaded with GDP, His-tagged human SOS1) (Homo sapiens, UniProt P01116, G12D)
Construct: made in house; host or cells: E. coli (stated for Kras only)
ASSAY SUMMARY: Protein-protein interaction inhibition between Kras and SOS1 (KrasGl2D-SOS PPI) using AlphaScreen
Format: binding
SETTINGS: AlphaScreen; biotin-tagged human Kras loaded with GDP, His-tagged human SOS1; read-out: KRAS G12D-SOS PPI IC50
Starred links: 1 amine or outer side, 2 acyl side, 3 side chain; linkers in the order of their positions; H or OH if unused. Positions of bridges follow the written chain, without caps; N, C: chain ends. Non-standard residues stand in square brackets, D forms with d. Residues, ends and D or L forms follow the SMILES beside them. NMeAbu(3,3-F2-piperidino) = CN[C@@H](CCN1CCCC(F)(F)C1)C(=O)O; hPhe(3-Cl-4-CF3) = N[C@@H](CCc1ccc(C(F)(F)F)c(Cl)c1)C(=O)O; hPhe(4-CF3) = N[C@@H](CCc1ccc(C(F)(F)F)cc1)C(=O)O; NMePhe(4-Cl) = CN[C@@H](Cc1ccc(Cl)cc1)C(=O)O; NMePhe(4-Me) = CN[C@@H](Cc1ccc(C)cc1)C(=O)O; NMedβ3hAla = C[C@H](CC(=O)[*:2])N(C)[*:1]; NMeGly(cPent) = CN[C@H](C(=O)O)C1CCCC1; Pro(4,4-F2) = O=C(O)[C@@H]1CC(F)(F)CN1; NMeCha = CN[C@@H](CC1CCCCC1)C(=O)O; NMeGly(cPr) = CN[C@H](C(=O)O)C1CC1; NMeChg = CN[C@H](C(=O)O)C1CCCCC1; NMeI = CC[C@H](C)[C@H](NC)C(=O)O; NMeD = CN[C@@H](CC(=O)O)C(=O)O; NMeL = CN[C@@H](CC(C)C)C(=O)O; NMeV = CN[C@H](C(=O)O)C(C)C; d(β3hA) = C[C@@H](N)CC(=O)O; NMeA = CN[C@@H](C)C(=O)O; Ac5c = NC1(C(=O)O)CCCC1; Aze = O=C(O)[C@@H]1CCN1; Sar = CNCC(=O)O
The entries below come with measured pIC50 values attached.
pIC50 here: minus log base 10 of the concentration, concentration in moles per litre.

Some solved cases for reference:
CC[C@H](C)[C@@H]1NC(=O)[C@H](CC(C)C)N(C)C(=O)C[C@@H](C)N(C)C(=O)[C@H](C2CCCCC2)N(C)C(=O)C2(CCCC2)NC(=O)[C@@H]2CCCN2C(=O)[C@H](CCc2ccc(C(F)(F)F)c(Cl)c2)NC(=O)CN(C)C(=O)[C@H](CC2CCCCC2)N(C)C(=O)[C@@H]2CCN2C(=O)[C@H](C)N(C)C1=O [Compound 1813] (cyclo([Ac5c][NMeChg][NMedβ3hAla][NMeL]I[NMeA][Aze][NMeCha][Sar][hPhe(3-Cl-4-CF3)]P))    7.44
CC[C@H](C)[C@@H]1NC(=O)[C@H](C2CC2)N(C)C(=O)C[C@@H](C)NC(=O)[C@H](C(C)C)N(C)C(=O)C2(CCCC2)NC(=O)[C@@H]2CCCN2C(=O)[C@H](CCc2ccc(C(F)(F)F)c(Cl)c2)NC(=O)CN(C)C(=O)[C@H](CC2CCCCC2)N(C)C(=O)[C@@H]2CCN2C(=O)[C@H](C)N(C)C1=O [Compound 565] (cyclo([Ac5c][NMeV][d(β3hA)][NMeGly(cPr)]I[NMeA][Aze][NMeCha][Sar][hPhe(3-Cl-4-CF3)]P))    7.26
CC[C@H](C)[C@@H]1NC(=O)[C@H](CC(C)C)N(C)C(=O)C[C@@H](C)N(C)C(=O)[C@H](C2CCCC2)N(C)C(=O)C2(CCCC2)NC(=O)[C@@H]2CC(F)(F)CN2C(=O)[C@H](CCc2ccc(C(F)(F)F)c(Cl)c2)NC(=O)CN(C)C(=O)[C@H](CC2CCCCC2)N(C)C(=O)CN(C)C(=O)CN(C)C1=O [Compound 107] (cyclo([Ac5c][NMeGly(cPent)][NMedβ3hAla][NMeL]I[Sar][Sar][NMeCha][Sar][hPhe(3-Cl-4-CF3)][Pro(4,4-F2)]))    8.40
CC[C@H](C)[C@@H]1NC(=O)[C@H](CC(C)C)N(C)C(=O)C[C@@H](C(=O)N(C)C)N(C)C(=O)[C@H]([C@@H](C)CC)N(C)C(=O)[C@H](C(C)C)NC(=O)[C@H](CCN2CCCC(F)(F)C2)N(C)C(=O)[C@H](CCc2ccc(C(F)(F)F)c(Cl)c2)NC(=O)CN(C)C(=O)[C@H](Cc2ccc(C)cc2)N(C)C(=O)[C@@H]2CCN2C(=O)[C@H](C)N(C)C1=O [Compound 379] ([NMeL]I[NMeA][Aze][NMePhe(4-Me)][Sar][hPhe(3-Cl-4-CF3)][NMeAbu(3,3-F2-piperidino)]V[NMeI][NMeD]-NMe2; lactam N-11)    7.89

Now for a further molecule.
Record CC[C@H](C)[C@@H]1NC(=O)[C@H](CC(C)C)N(C)C(=O)C[C@@H](C)NC(=O)[C@H](CC(C)C)N(C)C(=O)C2(CCCC2)NC(=O)[C@@H]2CCCN2C(=O)[C@H](CCc2ccc(C(F)(F)F)cc2)NC(=O)CN(C)C(=O)[C@H](Cc2ccc(Cl)cc2)N(C)C(=O)CN(C)C(=O)CN(C)C1=O [Compound 258] (cyclo([Ac5c][NMeL][d(β3hA)][NMeL]I[Sar][Sar][NMePhe(4-Cl)][Sar][hPhe(4-CF3)]P)) , field pIC50: 7.44
